Known IC50 of a selection of molecules
Molecular target: LRRK2 WT (Homo sapiens)
Construct: purchased Life Technologies PR8604B
Assay: LRRK2 Kinase Activity Assay (LanthaScreen TR-FRET), wild type
Type: biochemical
Details: recombinant wild type LRRK2, 25 μM ATP, 400 nM LRRKtide, 60 min; class symbols

Use the examples below as a reference point.
# Molecule, Reported Value
records = [
    ("N#Cc1ccc2c(c1)CC[C@H]2Nc1ccc2[nH]nc(I)c2c1 (single isomer, unassigned) [Example 128, enantiomer 1]", "100 to 1000 nM"),
    ("N#Cc1cc2c(nc1Cl)[C@@H](Oc1ccc3[nH]nc(-c4cnco4)c3c1)CC2 (single isomer, unassigned) [Example 171, enantiomer 2]", "< 100 nM"),
    ("Cc1c(C#N)ccc2c1CC[C@H]2Nc1ccc2[nH]nc(-c3cnoc3)c2c1 (single isomer, unassigned) [Example 118, enantiomer 2]", "< 100 nM"),
]

Task: Read off the recorded IC50 for N#Cc1cnc2c(c1)CCC[C@@H]2Nc1ccc2[nH]nc(-c3ccc[nH]3)c2c1 (single isomer, unassigned) [Example 148, enantiomer 1]
Result: < 100 nM

Task: Read off the recorded IC50 for Cc1c(C#N)ccc2c1CC[C@@H]2Nc1ccc2[nH]nc(-c3cnn(C(F)F)c3)c2c1 (single isomer, unassigned) [Example 52, enantiomer 1]
Result: < 100 nM

Task: Read off the recorded IC50 for N#Cc1cnc2c(c1)CCC[C@@H]2Oc1ccc2[nH]nc(C3CC3)c2c1 (single isomer, unassigned) [Example 136, enantiomer 1]
Result: 100 to 1000 nM

* * *

Known pIC50 of a selection of compounds
Target: LRRK2 G2019S (Homo sapiens, UniProt Q5S007, G2019S)
Sequence (Q5S007 whole entry G2019S): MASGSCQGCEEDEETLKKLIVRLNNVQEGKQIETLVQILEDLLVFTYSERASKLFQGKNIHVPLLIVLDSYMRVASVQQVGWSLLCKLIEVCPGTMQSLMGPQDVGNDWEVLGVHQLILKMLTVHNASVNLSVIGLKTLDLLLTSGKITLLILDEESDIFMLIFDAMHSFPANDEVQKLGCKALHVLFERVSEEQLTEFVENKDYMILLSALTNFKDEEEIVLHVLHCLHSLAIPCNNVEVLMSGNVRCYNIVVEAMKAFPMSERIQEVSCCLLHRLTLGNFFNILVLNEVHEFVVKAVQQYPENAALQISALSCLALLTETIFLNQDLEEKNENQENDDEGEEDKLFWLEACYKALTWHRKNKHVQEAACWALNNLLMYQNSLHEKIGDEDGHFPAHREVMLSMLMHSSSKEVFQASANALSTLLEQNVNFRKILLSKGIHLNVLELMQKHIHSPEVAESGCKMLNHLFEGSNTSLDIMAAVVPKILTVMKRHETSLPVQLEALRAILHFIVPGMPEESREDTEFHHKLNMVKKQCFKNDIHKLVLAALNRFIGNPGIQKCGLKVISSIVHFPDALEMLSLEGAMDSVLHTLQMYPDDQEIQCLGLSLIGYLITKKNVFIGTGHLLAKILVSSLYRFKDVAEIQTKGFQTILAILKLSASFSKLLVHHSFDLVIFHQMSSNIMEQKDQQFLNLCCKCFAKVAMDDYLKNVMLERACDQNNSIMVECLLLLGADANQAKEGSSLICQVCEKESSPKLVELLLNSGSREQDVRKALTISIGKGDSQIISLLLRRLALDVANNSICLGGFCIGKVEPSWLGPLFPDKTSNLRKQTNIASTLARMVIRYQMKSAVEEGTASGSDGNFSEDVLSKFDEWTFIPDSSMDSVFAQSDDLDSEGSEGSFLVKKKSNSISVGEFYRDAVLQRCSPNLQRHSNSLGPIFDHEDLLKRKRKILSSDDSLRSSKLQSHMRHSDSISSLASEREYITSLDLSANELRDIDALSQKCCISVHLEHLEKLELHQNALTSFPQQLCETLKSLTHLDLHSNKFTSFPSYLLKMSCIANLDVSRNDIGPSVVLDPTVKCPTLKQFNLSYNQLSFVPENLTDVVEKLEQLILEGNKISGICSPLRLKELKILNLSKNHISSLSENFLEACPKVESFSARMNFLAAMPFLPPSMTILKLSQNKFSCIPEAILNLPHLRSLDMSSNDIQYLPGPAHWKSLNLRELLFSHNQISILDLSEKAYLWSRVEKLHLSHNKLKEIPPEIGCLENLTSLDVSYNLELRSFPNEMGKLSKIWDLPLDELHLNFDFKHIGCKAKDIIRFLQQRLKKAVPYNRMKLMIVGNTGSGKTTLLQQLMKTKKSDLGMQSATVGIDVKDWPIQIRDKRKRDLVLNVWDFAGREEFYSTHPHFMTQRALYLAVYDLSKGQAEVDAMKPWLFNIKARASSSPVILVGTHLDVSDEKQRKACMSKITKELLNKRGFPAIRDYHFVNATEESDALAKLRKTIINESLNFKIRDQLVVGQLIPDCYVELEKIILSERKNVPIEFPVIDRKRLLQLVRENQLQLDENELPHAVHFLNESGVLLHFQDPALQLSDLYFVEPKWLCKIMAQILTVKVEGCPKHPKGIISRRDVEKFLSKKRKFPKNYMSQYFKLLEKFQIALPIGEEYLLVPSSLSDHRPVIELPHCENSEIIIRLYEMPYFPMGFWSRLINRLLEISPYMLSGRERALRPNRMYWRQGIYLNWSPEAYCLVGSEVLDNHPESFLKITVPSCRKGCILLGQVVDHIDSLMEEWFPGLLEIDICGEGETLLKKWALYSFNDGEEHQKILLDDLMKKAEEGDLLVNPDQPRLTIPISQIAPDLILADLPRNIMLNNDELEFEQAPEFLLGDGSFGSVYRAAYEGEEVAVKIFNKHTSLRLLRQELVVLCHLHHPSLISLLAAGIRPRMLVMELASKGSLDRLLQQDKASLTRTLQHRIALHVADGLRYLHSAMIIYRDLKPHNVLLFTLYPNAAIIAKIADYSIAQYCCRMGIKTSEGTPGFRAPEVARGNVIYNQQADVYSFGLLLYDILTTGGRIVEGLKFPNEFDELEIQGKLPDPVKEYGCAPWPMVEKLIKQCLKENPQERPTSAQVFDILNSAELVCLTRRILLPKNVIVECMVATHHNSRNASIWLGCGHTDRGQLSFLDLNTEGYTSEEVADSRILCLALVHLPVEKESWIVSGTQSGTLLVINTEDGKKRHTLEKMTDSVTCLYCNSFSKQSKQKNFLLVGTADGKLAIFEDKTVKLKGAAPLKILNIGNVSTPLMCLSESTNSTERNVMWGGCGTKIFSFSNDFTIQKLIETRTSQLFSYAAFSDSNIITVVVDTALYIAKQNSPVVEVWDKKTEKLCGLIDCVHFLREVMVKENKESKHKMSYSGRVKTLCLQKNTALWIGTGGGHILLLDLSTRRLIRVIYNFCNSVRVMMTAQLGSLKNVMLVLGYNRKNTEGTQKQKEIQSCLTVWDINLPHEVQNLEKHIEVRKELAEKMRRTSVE
Assay: LRRK2 Kinase Activity Assay (LanthaScreen TR-FRET), G2019S
Conditions: recombinant G2019S-LRRK2, 25 μM ATP, 400 nM LRRKtide, 60 min; class symbols
pIC50: −log10 of the molar value.

Use the examples below as a reference point.
# Compound, Assayed System, pIC50
data = [
    ("Cc1n[nH]c2ccc(N[C@H]3CCc4ccc(C#N)cc43)cc12 (single isomer, unassigned) [Example 130, enantiomer 2]", "LRRK2 G2019S (Homo sapiens, UniProt Q5S007, G2019S)", "> 7.00"),
    ("N#Cc1cccc(-c2n[nH]c3ccc(N[C@H]4CCCc5cc(C#N)ccc54)cc23)c1 (single isomer, unassigned) [Example 89]", "LRRK2 G2019S (Homo sapiens, UniProt Q5S007, G2019S)", "> 7.00"),
]

Task: Read off the recorded pIC50 for N#Cc1cc2c(cc1F)[C@@H](Oc1ccc3[nH]nc(-c4cnco4)c3c1)CC2 (single isomer, unassigned) [Example 23, enantiomer 1]
Result: > 7.00

Task: Read off the recorded pIC50 for N#Cc1ccc2c(c1)CCC[C@@H]2Nc1ccc2[nH]nc(-c3ccc4scnc4c3)c2c1 (single isomer, unassigned) [Example 67]
Result: > 7.00

* * *

Molecular target: LRRK2 WT (Homo sapiens, UniProt Q5S007)
Construct: purchased Life Technologies PR8604B
Sequence (Q5S007 whole entry): as the sequence (Q5S007 whole entry G2019S) above, with S2019G counted along it
Assay: LRRK2 Kinase Activity Assay (LanthaScreen TR-FRET), wild type
Format: biochemical
Conditions: recombinant wild type LRRK2, 25 μM ATP, 400 nM LRRKtide, 60 min; class symbols
pIC50: −log10 of the molar value.
Assay Readout: pIC50

Use the examples below as a reference point.
# Compound, Assayed System, pIC50
measured = [
    ("C[C@H]1CCc2cc(C#N)ccc2[C@H]1Oc1ccc2[nH]nc(-c3cnco3)c2c1 (single isomer, unassigned) [175, enantiomer 2]", "LRRK2 WT (Homo sapiens, UniProt Q5S007)", "6.00 to 7.00"),
    ("COc1n[nH]c2ccc(O[C@H]3CCCc4cc(C#N)c(Cl)nc43)cc12 (single isomer, unassigned) [186, enantiomer 2]", "LRRK2 WT (Homo sapiens, UniProt Q5S007)", "5.00 to 6.00"),
    ("CN(c1ccc2[nH]nc(-c3cnco3)c2c1)[C@H]1CCc2cc(C#N)ccc21 (single isomer, unassigned) [Example 111, enantiomer 1]", "LRRK2 WT (Homo sapiens, UniProt Q5S007)", "> 7.00"),
    ("N#Cc1ccc2c(c1)CCC[C@@H]2Nc1ccc2[nH]nc(-c3ccc(Br)cc3)c2c1 (single isomer, unassigned) [Example 95]", "LRRK2 WT (Homo sapiens, UniProt Q5S007)", "5.00 to 6.00"),
    ("COc1n[nH]c2ccc(O[C@H]3CCCc4cc(C#N)c(Br)nc43)cc12 (single isomer, unassigned) [188, enantiomer 2]", "LRRK2 WT (Homo sapiens, UniProt Q5S007)", "5.00 to 6.00"),
    ("N#Cc1nc2c(o1)CCC2Nc1ccc2[nH]nc(-c3cnco3)c2c1 (single isomer, unassigned) [Example 36, enantiomer 2]", "LRRK2 WT (Homo sapiens, UniProt Q5S007)", "> 7.00"),
]

Task: Read off the recorded pIC50 for N#Cc1ccc2c(c1)CC[C@@H]2Nc1ccc2[nH]nc(C3CC3)c2c1 (single isomer, unassigned) [Example 134, enantiomer 2]
Result: 5.00 to 6.00

Task: Read off the recorded pIC50 for Cc1ncc(-c2n[nH]c3ccc(O[C@H]4CCc5cc(C#N)c(F)cc54)cc23)o1 (single isomer, unassigned) [Example 160, enantiomer 1]
Result: > 7.00

Task: Read off the recorded pIC50 for Cc1cc2c(cc1C#N)CC[C@H]2Oc1ccc2[nH]nc(-c3cnco3)c2c1 (single isomer, unassigned) [Example 29, enantiomer 1]
Result: > 7.00

Task: Read off the recorded pIC50 for Cc1c(C#N)ccc2c1CC[C@@H]2Oc1ccc2[nH]nc(-c3cnco3)c2c1 (single isomer, unassigned) [Example 22, enantiomer 2]
Result: > 7.00

Task: Read off the recorded pIC50 for N#Cc1ccc2c(c1F)CC[C@H]2Nc1ccc2[nH]nc(-c3cnn(C(F)F)c3)c2c1 (single isomer, unassigned) [Example 53, enantiomer 1]
Result: > 7.00

Task: Read off the recorded pIC50 for Cc1n[nH]c2ccc(N[C@H]3CCCc4cc(C#N)ccc43)cc12 (single isomer, unassigned) [Example 43, enantiomer 2]
Result: 5.00 to 6.00

* * *

Target: LRRK2 WT (Homo sapiens, UniProt Q5S007)
Construct: purchased Life Technologies PR8604B
Assay: LRRK2 Kinase Activity Assay (LanthaScreen TR-FRET), wild type
Assay type: biochemical
Conditions: recombinant wild type LRRK2, 25 μM ATP, 400 nM LRRKtide, 60 min; class symbols
pIC50: −log10 of the molar value.
Assay Readout: pIC50

Use the examples below as a reference point.
# Compound, Assay Readout, Reported Value
measured = [
    ("N#Cc1cnc2c(c1)CC(F)(F)C2Nc1ccc2[nH]nc(-c3cnco3)c2c1 (stereo not shown)", "pIC50", "6.00 to 7.00"),
    ("N#Cc1ccc2c(c1)CC[C@H]2Nc1ccc2[nH]nc(-c3cnco3)c2n1 (single isomer, unassigned) [Example 30, enantiomer 1]", "pIC50", "> 7.00"),
    ("N#Cc1ccc2c(c1)CC[C@@H]2Oc1ccc2[nH]nc(C3CC3)c2c1 (single isomer, unassigned) [Example 124, enantiomer 1]", "pIC50", "6.00 to 7.00"),
]

Task: Read off the recorded pIC50 for C/C=C\c1n[nH]c2ccc(N[C@H]3CCCc4cc(C#N)ccc43)cc12 (single isomer, unassigned)
Result: 6.00 to 7.00

Task: Read off the recorded pIC50 for N#Cc1cnc2c(c1)CCC[C@@H]2Nc1ccc2[nH]nc(-c3cncs3)c2c1 (single isomer, unassigned) [Example 142, enantiomer 1]
Result: 6.00 to 7.00

Task: Read off the recorded pIC50 for N#Cc1cnc2c(c1)CCC[C@@H]2Nc1ccc2[nH]nc(-c3ccc[nH]3)c2c1 (single isomer, unassigned) [Example 148, enantiomer 2]
Result: 6.00 to 7.00

* * *

Target: LRRK2 G2019S (Homo sapiens, UniProt Q5S007, G2019S)
Construct: purchased Life Technologies PV4881
Test: LRRK2 Kinase Activity Assay (LanthaScreen TR-FRET), G2019S
Format: biochemical
Details: recombinant G2019S-LRRK2, 25 μM ATP, 400 nM LRRKtide, 60 min; class symbols
pIC50: −log10 of the molar value.
Assay Readout: pIC50

# Compound, pIC50
records = [
    ("C[C@@H]1CCc2cc(C#N)ccc2[C@H]1Nc1ccc2[nH]nc(-c3cnco3)c2c1 (single isomer, unassigned) [Example 174, enantiomer 2]", "> 7.00"),
    ("N#Cc1ccc2c(c1)CCC[C@@H]2Nc1ccc2[nH]nc(CC3CC3)c2c1 (single isomer, unassigned) [Example 139, enantiomer 1]", "5.00 to 6.00"),
    ("N#Cc1ccc2c(c1)CCCC[C@@H]2Nc1ccc2[nH]nc(-c3cnco3)c2c1 (single isomer, unassigned) [Example 104, enantiomer 2]", "6.00 to 7.00"),
    ("N#Cc1ccc2c(c1)OCC[C@@H]2Nc1ccc2[nH]nc(I)c2c1 (single isomer, unassigned) [193, enantiomer 1]", "6.00 to 7.00"),
    ("Cc1n[nH]c2ccc(N[C@H]3CCc4ccc(C#N)cc43)cc12 (single isomer, unassigned) [Example 130, enantiomer 1]", "6.00 to 7.00"),
]

// next entry
Task: Read off the recorded pIC50 for N#Cc1ccc2c(c1)CC[C@@H]2Nc1ccc2[nH]nc(C3CC3)c2c1 (single isomer, unassigned) [Example 134, enantiomer 2]
Result: 6.00 to 7.00
